What follows is a collection of pIC50 values obtained with F. tularensis IMPDH (Francisella tularensis, UniProt Q5NFC2).
Sequence (Q5NFC2 1-486): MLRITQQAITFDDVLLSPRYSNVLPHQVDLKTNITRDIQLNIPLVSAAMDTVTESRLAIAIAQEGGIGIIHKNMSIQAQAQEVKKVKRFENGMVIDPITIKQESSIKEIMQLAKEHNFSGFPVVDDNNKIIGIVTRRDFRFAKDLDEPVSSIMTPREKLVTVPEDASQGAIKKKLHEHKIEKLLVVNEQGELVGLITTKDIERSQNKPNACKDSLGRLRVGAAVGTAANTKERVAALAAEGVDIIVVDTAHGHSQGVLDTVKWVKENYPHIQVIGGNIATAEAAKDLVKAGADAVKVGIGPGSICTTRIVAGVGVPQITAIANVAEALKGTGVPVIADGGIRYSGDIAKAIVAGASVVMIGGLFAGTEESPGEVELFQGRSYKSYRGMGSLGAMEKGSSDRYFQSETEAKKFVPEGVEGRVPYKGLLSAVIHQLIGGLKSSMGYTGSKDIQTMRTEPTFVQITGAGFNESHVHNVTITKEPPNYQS
Kindly note that pIC50 refers to -log10 of the concentration in mol/L and answer with the value alone.

> print(dat)
                        structure.as.smiles                                    target  test.value
1  C[C@H](Sc1cccc(Cl)c1Cl)C(=O)Nc1ccc2oc(-c3ccncc3)nc2c1  F. tularensis IMPDH (Francisella tularensis, UniProt Q5NFC2)        6.72
2  CC(=O)c1cccc(C(C)(C)OC(=O)Nc2ccc(Cl)cc2)c1  F. tularensis IMPDH (Francisella tularensis, UniProt Q5NFC2)        6.41

Missing value: pIC50, F. tularensis IMPDH (Francisella tularensis, UniProt Q5NFC2), entry C=C(C)c1cccc(C(C)(C)NC(=O)Nc2ccc(Cl)c(C(=O)O)c2)c1 . Fill in?
6.92

Do the same for Cn1nc(CC(=O)Nc2ccc3oc4ccccc4c3c2)c2ccccc2c1=O please
7.22

Do the same for Cn1nc(CC(=O)Nc2ccc(Br)c(C(F)(F)F)c2)c2ccccc2c1=O please
6.57

###

Target: CpIMPDH (Cryptosporidium parvum)
Sequence (Q8T6T2 1-400): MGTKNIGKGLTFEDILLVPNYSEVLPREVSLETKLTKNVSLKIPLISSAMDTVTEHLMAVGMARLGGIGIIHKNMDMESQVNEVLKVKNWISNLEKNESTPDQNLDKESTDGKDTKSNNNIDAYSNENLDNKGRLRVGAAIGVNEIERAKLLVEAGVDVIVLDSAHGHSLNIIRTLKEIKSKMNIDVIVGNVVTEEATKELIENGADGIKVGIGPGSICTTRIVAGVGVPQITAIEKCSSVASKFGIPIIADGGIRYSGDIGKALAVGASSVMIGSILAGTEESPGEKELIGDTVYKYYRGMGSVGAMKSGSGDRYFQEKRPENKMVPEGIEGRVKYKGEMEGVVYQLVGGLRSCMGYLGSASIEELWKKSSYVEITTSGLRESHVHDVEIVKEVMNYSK
Details: read-out: IC50 against CpIMPDH
reported metric: IC50 (nM)
Give just the numeric value; nM need not be written.

Which IC50 reading was recorded for the molecule Cn1nc(CC(=O)Nc2ccc3oc4ccccc4c3c2)c2ccccc2c1=O ?
4

###

Reported melting point by item:

> print(dat)
                        structure.as.smiles  reported.metric     test.value
1  C/C(=N\O)c1cccc(C(C)(C)NC(=O)Nc2ccc3cccnc3c2)c1    melting point  164 to 166 °C

Which melting point reading was recorded for the compound C=C(C)c1cccc(C(C)(C)NC(=O)Nc2ccc3ccccc3n2)c1 ?
126 to 128 °C

Do the same for C/C(=N\O)c1cccc(C(C)(C)NC(=O)Nc2ccc(Cl)c(C(F)(F)F)c2)c1 please
194 to 196 °C

Do the same for C=C(C)c1cccc(C(C)(C)NC(=O)Nc2ccc3ccccc3c2)c1 please
201 to 203 °C

Do the same for C=C(C)c1cccc(C(C)(C)NC(=O)Nc2ccc(Cl)c(Cl)c2)c1 please
198 to 200 °C

Do the same for C=C(C)c1cccc(C(C)(C)NC(=O)Nc2ccccc2)c1 please
188 to 190 °C

###

biological target: S. pyogenes IMPDH (Streptococcus pyogenes, UniProt P0C0H6)
Sequence (P0C0H6 whole entry): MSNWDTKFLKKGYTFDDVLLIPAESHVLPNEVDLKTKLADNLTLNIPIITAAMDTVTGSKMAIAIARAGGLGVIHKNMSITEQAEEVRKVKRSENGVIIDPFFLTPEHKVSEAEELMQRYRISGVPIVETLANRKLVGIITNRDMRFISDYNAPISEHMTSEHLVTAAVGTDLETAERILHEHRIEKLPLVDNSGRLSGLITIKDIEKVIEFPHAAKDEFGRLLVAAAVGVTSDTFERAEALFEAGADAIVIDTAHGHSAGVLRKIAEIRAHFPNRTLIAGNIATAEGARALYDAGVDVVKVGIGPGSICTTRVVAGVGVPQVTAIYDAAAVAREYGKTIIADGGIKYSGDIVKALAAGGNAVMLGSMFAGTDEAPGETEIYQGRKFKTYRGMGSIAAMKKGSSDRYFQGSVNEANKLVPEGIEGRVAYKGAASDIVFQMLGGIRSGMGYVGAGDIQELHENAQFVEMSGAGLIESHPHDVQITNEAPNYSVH
reported metric: IC50

Which IC50 reading was recorded for the compound Cn1nc(CC(=O)Nc2ccc3oc4ccccc4c3c2)c2ccccc2c1=O [Compound D73] ?
> 100 µM

###

target: CpIMPDH (Cryptosporidium parvum, UniProt Q8T6T2)
reported metric: CpIMPDH inhibitory activity (SAR, in words)

> print(dat)
                        structure.as.smiles  test.value
1  Cn1nc(CC(=O)Nc2ccc3[nH]c4ccccc4c3c2)c2ccccc2c1=O  not active
2  Cn1nc(CC(=O)Nc2ccc3c(c2)oc2ccccc23)c2ccccc2c1=O  not active
3  CCn1c2ccccc2c2cc(NC(=O)Cc3nn(C)c(=O)c4ccccc34)ccc21  not active

###

target: F. tularensis IMPDH (Francisella tularensis, UniProt Q5NFC2)
Label key: yes means IC50 under 2000 nM; no means IC50 of 2000 nM or more.

> print(dat)
                                   molecule                                    target  category
1  C[C@H](Nc1cccc(Cl)c1Cl)C(=O)Nc1ccc2oc(-c3ccncc3)nc2c1 [Compound Q67]  F. tularensis IMPDH (Francisella tularensis, UniProt Q5NFC2)       yes
2  CC(=NOC(C)(C)C)c1cccc(C(C)(C)NC(=O)Nc2ccc(Cl)c(C(F)(F)F)c2)c1 [Compound P114]  F. tularensis IMPDH (Francisella tularensis, UniProt Q5NFC2)        no
3  CC(NC(=O)c1ccc2oc(-c3ccncc3)nc2c1)c1ccccc1 (stereo not drawn) [Compound Q63]  F. tularensis IMPDH (Francisella tularensis, UniProt Q5NFC2)        no
4  C=C(C)c1cccc(C(C)(C)NC(=O)Nc2ccc3c(c2)OCCO3)c1 [Compound P113]  F. tularensis IMPDH (Francisella tularensis, UniProt Q5NFC2)       yes
5  C/C(=N\OC(C)(C)C)c1cccc(C(C)(C)NC(=O)Nc2ccc(Cl)c([N+](=O)[O-])c2)c1 [Compound P127]  F. tularensis IMPDH (Francisella tularensis, UniProt Q5NFC2)       yes

is_below(IC50, 2000 nM) for C[C@H](Oc1cccc(Cl)c1Cl)C(=O)Nc1ccc2nc(-c3cncs3)oc2c1 [Compound Q64] ?
yes

###

What follows is a collection of pIC50 values obtained with B. anthracis IMPDH (Bacillus anthracis).
Sequence (A0A6L8P2U9 1-487): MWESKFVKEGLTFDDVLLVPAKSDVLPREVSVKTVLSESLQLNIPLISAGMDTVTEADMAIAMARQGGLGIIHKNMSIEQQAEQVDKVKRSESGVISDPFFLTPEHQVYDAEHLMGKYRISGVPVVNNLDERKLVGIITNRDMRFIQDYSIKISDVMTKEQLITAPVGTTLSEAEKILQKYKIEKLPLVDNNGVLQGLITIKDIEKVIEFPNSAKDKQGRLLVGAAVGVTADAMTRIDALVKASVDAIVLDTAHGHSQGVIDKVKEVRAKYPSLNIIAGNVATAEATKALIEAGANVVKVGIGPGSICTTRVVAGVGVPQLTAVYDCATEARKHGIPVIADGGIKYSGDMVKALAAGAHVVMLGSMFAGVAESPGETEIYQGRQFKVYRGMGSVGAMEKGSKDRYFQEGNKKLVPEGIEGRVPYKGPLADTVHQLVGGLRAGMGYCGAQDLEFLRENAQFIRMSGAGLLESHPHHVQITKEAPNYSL
Kindly note that pIC50 refers to -log10 of the concentration in mol/L and answer with the value alone.

Take a look at these entries with their results.
> print(dat)
                                   compound  test.value
1  C=C(C)c1cccc(C(C)(C)NC(=O)Nc2ccc3c(c2)OCCO3)c1        6.96
2  C[C@H](Oc1cccc(Cl)c1Cl)C(=O)Nc1ccc2nc(-c3cncs3)oc2c1        6.69
3  CC(=NOC(C)(C)C)c1cccc(C(C)(C)NC(=O)Nc2ccc(Cl)c(C(F)(F)F)c2)c1        7.25
4  C[C@H](Nc1cccc(Cl)c1Cl)C(=O)Nc1ccc2oc(-c3ccncc3)nc2c1        7.57
5  C/C(=N\OC(C)(C)C)c1cccc(C(C)(C)NC(=O)Nc2ccc(Cl)c([N+](=O)[O-])c2)c1        7.03

Now for the compound whose pIC50 we want.
Which pIC50 reading was recorded for the compound Cn1nc(CC(=O)Nc2ccc(Cl)c(F)c2)c2ccccc2c1=O ?
6.05

###

assay: Plasma pharmacokinetics in C57BL/6 mice; type: in vivo, mouse; settings: 250 mg/kg single oral dose, C57BL/6 mice; read-out: maximal plasma concentration (Cmax)
reported metric: Cmax (µM)
Give just the numeric value; µM need not be written.

Which Cmax reading was recorded for the compound CC(=NOCCN)c1cccc(C(C)(C)NC(=O)Nc2ccc(Cl)c([N+](=O)[O-])c2)c1 [Compound P131] ?
9

###

molecular target: B. anthracis IMPDH (Bacillus anthracis); test: biochemical
reported metric: log10 IC50 (log10 of the value in nM)
Please keep in mind that the values are log10 of IC50 expressed in nM.

> print(dat)
                                   compound  test.value
1  C=C(C)c1cccc(C(C)(C)NC(=O)Nc2ccc(Cl)c(C(=O)O)c2)c1        1.83
2  CC(NC(=O)c1ccc2oc(-c3ccncc3)nc2c1)c1ccccc1 (stereo not drawn)        5.30
3  C[C@H](Sc1cccc(Cl)c1Cl)C(=O)Nc1ccc2oc(-c3ccncc3)nc2c1        2.18
4  Cn1nc(CC(=O)Nc2ccc3oc4ccccc4c3c2)c2ccccc2c1=O        2.43

Which log10 IC50 reading was recorded for the compound CC(=O)c1cccc(C(C)(C)OC(=O)Nc2ccc(Cl)cc2)c1 ?
2.72

Do the same for CC(=NOCCN)c1cccc(C(C)(C)NC(=O)Nc2ccc(Cl)c([N+](=O)[O-])c2)c1 please
2.32
